Tested on: OVCAR4
assay comment: drug sensitivity score (DSS) from 5-point dose-response viability curve (DSS (area-under-curve based score)); higher = more sensitive (stronger growth inhibition or killing); extreme values may be limits of the assay
condition summary: exposure time: 72 h; concentration range: 5 concentrations over 10,000-fold range
Mark -1 for drug sensitivity score values under 2, and 1 for everything at or above.

Solved entries:
compound=O=C(O)c1ccc(CN2CCC(CN[C@@H]3C[C@H]3c3ccccc3)CC2)cc1 group=-1
compound="CCNC(=O)C[C@@H]1N=C(c2ccc(Cl)cc2)c2cc(OC)ccc2-n2c(C)nnc21 [Molibresib]" group=1
compound="NC(=O)NO [Hydroxyurea]" group=-1

Problem: Would you say COc1cc2ncnc(Nc3ccc(F)c(Cl)c3)c2cc1NC(=O)/C=C/CN1CCCCC1 [Dacomitinib] shows drug sensitivity score at minimum 2?
Result: -1

Problem: Threshold query (drug sensitivity score >= 2) on CN(Cc1cnc2nc(N)nc(N)c2n1)c1ccc(C(=O)N[C@@H](CCC(=O)O)C(=O)O)cc1 [Methotrexate]
Result: 1

Problem: Check if drug sensitivity score >= 2 (inclusive). Item: O=C(Nc1c[nH]nc1-c1nc2ccc(CN3CCOCC3)cc2[nH]1)NC1CC1 [AT9283]
Result: 1

* * *

Test system: OVCAR8
assay comment: drug sensitivity score (DSS) from 5-point dose-response viability curve (DSS (area-under-curve based score)); higher = more sensitive (stronger growth inhibition or killing); extreme values may be limits of the assay
condition summary: exposure time: 72 h; concentration range: 5 concentrations over 10,000-fold range
Class (required): determined from drug sensitivity score; valid ranges are category 1 = under 0.3, category 2 = from 0.3 up to 4, category 3 = 4 and over

Solved entries:
molecule="COc1cc(N2CCN(C)CC2)ccc1Nc1nccc(-c2cn(C)c3cnccc23)n1 [AZ191]" measured_target=OVCAR8 group="category 2"
molecule="Cc1c(F)cc(C(=O)NC2CC2)cc1-c1ccc(C(=O)NCC(C)(C)C)cn1 [Losmapimod]" measured_target=OVCAR8 group="category 1"
molecule="CC(C)(C)Cn1c(N)nc2ccc(-c3[nH]c(C(C)(C)C)nc3-c3ccc(F)cc3)nc21 [Ralimetinib]" measured_target=OVCAR8 group="category 2"

Problem: Using the reported drug sensitivity score, which band applies to COc1cccc2c1C(=O)c1c(O)c3c(c(O)c1C2=O)C[C@@](O)(C(C)=O)C[C@@H]3O[C@H]1C[C@H](N)[C@H](O)[C@H](C)O1 [Daunorubicin] ?
Result: category 3

Problem: Lab note: which band did O=C(/C=C\n1cnc(-c2cc(C(F)(F)F)cc(C(F)(F)F)c2)n1)NNc1cnccn1 [Selinexor] land in?
Result: category 3

Problem: Note: place this molecule into its band. Item: Cc1cc(C(C)Nc2ccccc2)c2nc(N3CCOCC3)cc(=O)n2c1 (stereo not drawn) [TGX-221]
Result: category 2

* * *

Tested on: CAOV3
assay comment: drug sensitivity score (DSS) from 5-point dose-response viability curve (DSS (area-under-curve based score)); higher = more sensitive (stronger growth inhibition or killing); extreme values may be limits of the assay
condition summary: exposure time: 72 h; concentration range: 5 concentrations over 10,000-fold range
TRUE means recorded drug sensitivity score is 4 or above; FALSE means it is below 4.

Record excerpt, results attached:
compound=Cc1ccc(=O)n(-c2ccccc2)c1 measured_target=CAOV3 group=FALSE
compound=CCc1cc2c(cc1N1CCC(N3CCOCC3)CC1)C(C)(C)c1[nH]c3cc(C#N)ccc3c1C2=O measured_target=CAOV3 group=FALSE
compound=CCCN(CCC)C(=O)C1=Cc2ccc(-c3ccc(C(=O)N4CCCC4)cc3)cc2N=C(N)C1 measured_target=CAOV3 group=FALSE
compound=CC(C)C[C@H](NC(=O)[C@H](CCc1ccccc1)NC(=O)CN1CCOCC1)C(=O)N[C@@H](Cc1ccccc1)C(=O)N[C@@H](CC(C)C)C(=O)[C@@]1(C)CO1 measured_target=CAOV3 group=TRUE
compound=CC(C)(O)CC(=O)NCCn1ccc2ncnc(Nc3ccc(Oc4cccc(C(F)(F)F)c4)c(Cl)c3)c21 measured_target=CAOV3 group=FALSE

Problem: // inclusive: drug sensitivity score at least 4? input: COc1cc2ncnc(Nc3cccc(Cl)c3F)c2cc1OC(=O)N1CCN(C)C[C@H]1C
Result: FALSE

Problem: Determine whether measured drug sensitivity score meets or exceeds 4 for Nc1ncnc2c1nc(Cl)n2[C@@H]1O[C@H](CO)[C@@H](O)[C@H]1O
Result: TRUE

Problem: Please tell me: is the compound COc1cc2nccc(Oc3ccc(NC(=O)Nc4cc(C)on4)c(Cl)c3)c2cc1OC at or over 4 in terms of drug sensitivity score?
Result: FALSE

Problem: // inclusive: drug sensitivity score at least 4? input: COc1cc2c(cc1OC(C)C)[C@H](c1ccc(Cl)cc1)N(c1ccc(N(C)C[C@H]3CC[C@H](N4CCN(C)C(=O)C4)CC3)cc1)C(=O)C2
Result: FALSE

Problem: Entry Cc1noc2c1-c1ccccc1C(c1ccc(Cl)cc1)=N[C@H]2CC(N)=O : is its drug sensitivity score no less than 4?
Result: TRUE

Problem: Entry Cc1cnc(-c2ccccc2C(C)C)nc1NCc1ccc(-n2ccnn2)cc1 : is its drug sensitivity score no less than 4?
Result: FALSE
